Documented protein stability index across a set of variants
B1: FAM107A (parent)
chain: LQRVLEHRRRNQLIKKKKEELEAK

- Variants of: B1
- Run description: protein stability index of a GFP-peptide fusion (GPS, HEK-293T) (PSI 1-6); higher = more stable;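 note: lentivirally expressed fusions sorted by FACS into six bins by GFP to DsRed ratio, PSI derived from sequencing read proportions per bin multiplied by bin number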
- Measurement context: c terminus: a fixed tail appended
Readout kind: protein stability index

1) L5G    4.73
2) A23L    3.99
3) K16E    3.94
4) E22G    3.33
5) R8N    3.53
6) R3V    3.6
7) N11W    1.93
8) K17Y    3.37
9) K18V    3.21
10) L21K    2.99
11) E20N    3.35
12) K16G    4.52
13) L13G    4.31
14) L5Q    3.94
15) R9V    2.16
16) Q12N    3.1
17) L5F    3.77
18) K16D    4.44
19) R9L    1.72
20) L21R    4.14
21) E20D    3.71
22) Q12A    4.05
23) E6C    3.12
24) A23K    2.86
25) K24H    3.33
26) E6T    3.02
27) R10G    4.15
28) L21F    2.71
29) K24T    3.97
30) L13S    3.72
31) E19R    2.56
32) E19K    2.97
33) K18W    3.1
